B1: TOR1AIP2 (parent)
chain: AGQEGEDTLRRRLLAPEAGSHPQQ

Variants of: B1
Assay: protein stability index of a GFP-peptide fusion (GPS, HEK-293T) (PSI 1-6); higher = more stable;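 also: lentivirally expressed fusions sorted by FACS into six bins by GFP to DsRed ratio, PSI derived from sequencing read proportions per bin multiplied by bin number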
Settings: c terminus: a fixed tail appended
Label 1 when protein stability index >= 3; otherwise 0.

{"BIOSEQUENCE": "AGQEGEDTLNRRLLAPEAGSHPQQ", "CLASS NAME": 1}
{"BIOSEQUENCE": "AGQYGEDTLRRRLLAPEAGSHPQQ", "CLASS NAME": 0}
{"BIOSEQUENCE": "AGQEGEDTLFRRLLAPEAGSHPQQ", "CLASS NAME": 1}

Hi, just wondering whether AGQEGEDTLRWRLLAPEAGSHPQQ shows protein stability index of 3 or higher.
0

Determine whether measured protein stability index meets or exceeds 3 for AGQEGFDTLRRRLLAPEAGSHPQQ
1

Answer whether protein stability index of AGQEGEDTLRRRLLAPEAGSHPCQ is greater than or equal to 3.
0
